# Tested on: BT-549 breast
# Protocol details: NCI tumour cell line growth inhibition, 48 h
Measured TGI, listed per entry.

{"Compound": "C=C(C)COc1ccc2c(c1)CCC1C2CCC2(C)C(=O)/C(=N/O)CC12 (stereo unspecified)", "Value modifier": "=", "TGI, µM": 21.2}
{"Compound": "CCCCCCCCCCCCC(O)C1CCC(C(O)CCCCC(O)CCCCCC2CC(CC(C)=O)C(=O)O2)O1 (stereo unspecified)", "Value modifier": "=", "TGI, µM": 5.6}
{"Compound": "c1ccc2c(c1)CCN1CCc3ccccc3C1C2 (stereo unspecified)", "Value modifier": ">", "TGI, µM": 100}
{"Compound": "COc1cc(-c2nc(N)c(C#N)c3c2CCS(=O)(=O)c2ccc(C)cc2-3)cc(OC)c1OC", "Value modifier": ">", "TGI, µM": 100}
{"Compound": "CC/C(Cl)=N\\OC(=O)Nc1ccc(F)c(Cl)c1", "Value modifier": "=", "TGI, µM": 51.3}
{"Compound": "C=C(C(=O)c1ccccc1)C(NC(C)(C)C)c1ccccc1 (stereo unspecified)", "Value modifier": "=", "TGI, µM": 4.6}
{"Compound": "COc1ccc2nc3ccc(OC)cc3c(S(=O)Cc3ccccc3)c2c1 (stereo unspecified)", "Value modifier": "=", "TGI, µM": 27.4}
{"Compound": "Cc1nc(C)c(N2CCN(Cc3ccccc3)CC2)c(=O)[nH]1", "Value modifier": ">", "TGI, µM": 100}
{"Compound": "COc1ccc(C[C@H]2COC(=O)[C@@H]2Cc2ccc(Br)cc2)cc1OC", "Value modifier": "=", "TGI, µM": 84.2}
{"Compound": "CC(C)=CCC/C(C)=C/Cc1c2c(c3oc(-c4ccc(O)c(O)c4)c(O)c(=O)c3c1O)C=CC(C)(C)O2", "Value modifier": "=", "TGI, µM": 15}
{"Compound": "Cc1cc(NS(=O)(=O)c2ccc(NO)cc2)no1", "Value modifier": ">", "TGI, µM": 100}

* * *

# TGI annotations
# Tested on: 786-0 renal
# Protocol details: NCI tumour cell line growth inhibition, 48 h

{"Compound": "CCOC(=O)/C=C(/C(=O)OCC)n1ccc(=O)n(Cc2cn(CCCCOC(C)=O)nn2)c1=O", "Target": "786-0 renal", "Value modifier": ">", "TGI / µM": 100}
{"Compound": "CCOC(=O)C#Cc1cccc(C#CC(=O)OCC)c1", "Target": "786-0 renal", "Value modifier": "=", "TGI / µM": 8.85}
{"Compound": "Cc1c2c(n3c(nc4ccccc43)c1C#N)N(c1ccc(F)cc1)CC2", "Target": "786-0 renal", "Value modifier": ">", "TGI / µM": 100}
{"Compound": "COc1ccc2nc3cc([N+](=O)[O-])ccc3c(NCCO)c2c1", "Target": "786-0 renal", "Value modifier": "=", "TGI / µM": 11.4}
{"Compound": "C/C(=C\\[Si](C)(C)c1ccco1)C(C)(O)[C@H](C)O (stereo partly specified)", "Target": "786-0 renal", "Value modifier": ">", "TGI / µM": 100}
{"Compound": "CCOC(=O)N1c2ccccc2N(C(=O)OCC)C1CC(=O)/C=C/c1ccccc1", "Target": "786-0 renal", "Value modifier": "=", "TGI / µM": 10.6}
{"Compound": "Clc1nc(Cl)c2ncn(-c3ccccc3)c2n1", "Target": "786-0 renal", "Value modifier": "=", "TGI / µM": 18.3}
{"Compound": "O=C(O)C12C3CCC(C3)C1(C(=O)O)C1CCC2C1 (stereo unspecified)", "Target": "786-0 renal", "Value modifier": ">", "TGI / µM": 100}
{"Compound": "CCCCCCCCCN=C(N)c1ccc(N2CCN(c3ccc(C(N)=NCCCCCCCCC)cc3)CC2)cc1", "Target": "786-0 renal", "Value modifier": ">", "TGI / µM": 50}
{"Compound": "O=C(CCN1CCCCC1)c1csc2ccccc12", "Target": "786-0 renal", "Value modifier": ">", "TGI / µM": 100}
{"Compound": "CCCCCN1C(=O)C(Cc2ccccc2)N=C(c2ccc(O)cc2)c2cc(Cl)ccc21 (stereo unspecified)", "Target": "786-0 renal", "Value modifier": "=", "TGI / µM": 27.3}

* * *

# Tested on: SK-MEL-28 melanoma
# Protocol details: NCI tumour cell line growth inhibition, 48 h
Measurement name: GI50

{"Molecule": "CC1(C)N=C(N)N=C(N)N1c1ccc(OCC(=O)Nc2ccc(S(=O)(=O)F)cc2Cl)c(Cl)c1", "Target": "SK-MEL-28 melanoma", "Experimental result": "37.6 µM"}
{"Molecule": "CCOC(=O)C1=C(C)NC2SC(=O)/C(=C\\c3cccc(Cl)c3)N2C1c1ccccc1 (stereo not given)", "Target": "SK-MEL-28 melanoma", "Experimental result": "> 100 µM"}
{"Molecule": "Cn1cc(-c2csc(-c3ccccc3)n2)c2cccnc21", "Target": "SK-MEL-28 melanoma", "Experimental result": "15.7 µM"}
{"Molecule": "NS(=O)(=O)c1ccc(N=Nc2c(O)[nH]c3ccc(C(=O)NCCCn4ccnc4)cc23)cc1", "Target": "SK-MEL-28 melanoma", "Experimental result": "> 25 µM"}
{"Molecule": "CO/N=C(/C)COc1ccc2c(c1)oc(=O)c1cc(OC)ccc12", "Target": "SK-MEL-28 melanoma", "Experimental result": "> 100 µM"}
{"Molecule": "COc1cc(/C=C2\\CC3C4CCC5=CC(=O)CC[C@]5(C)C4CC[C@]3(C)C2=O)ccc1OCCN1CCCC1 (stereo not given in full)", "Target": "SK-MEL-28 melanoma", "Experimental result": "2.7 µM"}
{"Molecule": "CS(=O)(=O)N1CCC(Nc2ncc(C(=O)c3c(F)cccc3F)c(N)n2)CC1", "Target": "SK-MEL-28 melanoma", "Experimental result": "18.6 µM"}
{"Molecule": "COc1ccc(-c2nc3sccn3c2-c2ccnc(NCCNS(=O)(=O)c3ccc(C(F)(F)F)cc3)n2)cc1", "Target": "SK-MEL-28 melanoma", "Experimental result": "3.68 µM"}
{"Molecule": "CCOc1cc(Cl)c(C(C)NC(=O)c2cccc(OC)c2)cc1OCC (stereo not given)", "Target": "SK-MEL-28 melanoma", "Experimental result": "16.5 µM"}
{"Molecule": "Cc1ccc2ncnc(N(C)C3CCCCC3)c2c1", "Target": "SK-MEL-28 melanoma", "Experimental result": "40 µM"}

* * *

# System: SN12C renal
# Protocol details: NCI tumour cell line growth inhibition, 48 h
Measurement name: TGI

{"Molecule": "O=P1(Oc2ccc(Cl)cc2Cl)Oc2cc3ccccc3cc2O1", "Experimental result": "> 100 µM"}
{"Molecule": "CCOc1cc(Cl)c(C(C)NC(=O)c2cccc(OC)c2)cc1OCC (stereo unspecified)", "Experimental result": "> 100 µM"}
{"Molecule": "O=C1C(Cl)C(c2ccc(O)cc2)N1n1cnc2ccccc2c1=O (stereo unspecified)", "Experimental result": "> 100 µM"}
{"Molecule": "CNC(=O)/C=C/C1=CN2C(=O)c3ccc(C)c(O)c3NC(OC)C2C1 (stereo unspecified)", "Experimental result": "12.1 µM"}
{"Molecule": "CCOC(=O)c1sc2nc(SC)nc3c2c1NC(=O)CN3c1ccc(F)cc1", "Experimental result": "69.1 µM"}
{"Molecule": "COc1ccc(C2=C(c3ccccc3)C(=O)N3CCCC3C2)cc1 (stereo unspecified)", "Experimental result": "> 100 µM"}

* * *

# System: ACHN renal
# Protocol details: NCI tumour cell line growth inhibition, 48 h; in the data active means GI50 below about 0.43 µM; inactive means the rest
Classes used: active, inactive

{"Molecule": "COc1ccc(-c2nc3sccn3c2-c2ccnc(NCCNS(=O)(=O)c3ccc(C(F)(F)F)cc3)n2)cc1", "Assigned category": "inactive"}
{"Molecule": "COc1ccc(N=Nc2ccc(O)c(=O)cc2)cc1", "Assigned category": "inactive"}
{"Molecule": "Cc1ccc(C2=NN(c3ccc(S(=O)(=O)NC(=O)NCc4ccccc4)cc3)C(c3ccc(N(C)C)cc3)C2)c(C)c1 (centres undefined)", "Assigned category": "inactive"}
{"Molecule": "CC[C@]12C=CCN3CC[C@@]4(c5ccc(OC)cc5N(C)[C@H]4[C@@](O)(C(=O)OC)[C@@H]1OC(=O)CCC(=O)O[C@H]1CC[C@H]4[C@@H]5CCC6=CC(=O)CC[C@@H]6[C@H]5CC[C@]14C)[C@@H]32", "Assigned category": "inactive"}
{"Molecule": "COc1cc2c(Nc3ccc(-c4ccc(N)cc4)cc3)ncnc2c(OC)c1OC", "Assigned category": "inactive"}
{"Molecule": "Cc1ccc2ncnc(N(C)C3CCCCC3)c2c1", "Assigned category": "inactive"}
{"Molecule": "NC(=O)c1c[nH]c2ncnc(N)c12", "Assigned category": "inactive"}
{"Molecule": "O=C(Cc1cc(O)ccc1O)NO", "Assigned category": "inactive"}
{"Molecule": "CCOC(=O)c1c(C)n([O-])c2cc(F)c(F)cc2[n+]1=O", "Assigned category": "inactive"}
{"Molecule": "C[n+]1cccc(NC(=O)c2ccc3ccc4ccc(C(=O)Nc5ccc[n+](C)c5)nc4c3n2)c1", "Assigned category": "inactive"}
{"Molecule": "CC(C)n1cc(-c2ccc3c(c2)N(C)CC3)c2c(NS(=O)(=O)c3ccn(C)n3)ccnc21", "Assigned category": "inactive"}
{"Molecule": "COC(=O)C1C(C(=O)O)C2(c3ccccc3)C(=O)C1(c1ccccc1)C(c1ccc(OC)cc1)=C2c1ccc(OC)cc1 (centres undefined)", "Assigned category": "inactive"}
{"Molecule": "CC(=O)[O-].CC(=O)[O-].O=C([CH-]C(=O)c1ccccc1)c1ccccc1.[Nd+3].[OH3+]", "Assigned category": "inactive"}
{"Molecule": "CC(C)C[C@H](NC(=O)[C@@H](Cc1ccccc1)n1ccc(Nc2ccccc2)cc1=O)B(O)O", "Assigned category": "active"}
{"Molecule": "COc1cccc2nc(Nc3cccc(NC(=O)c4ccc(N5CCN(C)CC5)c(C(F)(F)F)c4)c3)ccc12", "Assigned category": "inactive"}
{"Molecule": "Cc1ccc(NC(=S)NNC(=S)Nc2ccc(C)cc2)cc1", "Assigned category": "inactive"}
{"Molecule": "COc1ccccc1CNCCCN1C(=O)c2ccc3c4c(ccc(c24)C1=O)C(=O)N(CCCNCCCCNCCCN)C3=O", "Assigned category": "inactive"}
{"Molecule": "Cn1cc(-c2csc(-c3ccccc3)n2)c2cccnc21", "Assigned category": "inactive"}
{"Molecule": "CCCCCCCCCN=C(N)c1ccc(N2CCN(c3ccc(C(N)=NCCCCCCCCC)cc3)CC2)cc1", "Assigned category": "inactive"}
